meta.source: patent US20260258115A1

- assaySystem: RSV prefusion F, subtype A (preF, DS-Cav1 trimer) (Respiratory syncytial virus subtype A, UniProt P03420 26-513)
- assayExplanation: BLI, IgG apparent affinity
For each of the binders below, state its Kd.
Report only the number, with the unit pM understood.

Value lookup for Kd; key = ADI-21078 (antibody, V domains shown) VH: EVQLVESGGGLVKPGGSLRLSCAASGFRLSDYYMSWIRQAPGKGLEWISDISGGSTYTNYADSVKGRLTISRDNAQNSLYLQMNSLRAEDTAVYYCARWGSGGPDAFHFWGQGTTVTVSS VL: QSVLTQPPSVSGVPGQRVTISCTGSRSNIGAGYDVHWYRQLPGTAPKLLIYGNSNRPSGVPDRFSGSKSGTSASLAITGLQADDEADYYCQSYDSSLSGSVIFGGGTKVTVL
311

Value lookup for Kd; key = ADI-21080 (antibody, V domains shown) VH: EVQLLESGGGLVKPGGSLRLSCEVSGFRLSDYYMSWIRQAPGKGLEWVSHISGGSTYTNYADSVKGRFTISRDNGKKSMYLQMNSLRAEDTALYYCAKWGSGGPEAFDIWGRGTMVTVSS VL: QSALIQPPSVSGAPGQRVTISCTGSSSNIGAGYDVHWYQQIPGTAPKLLIYGNNNRPSGVPDRFSGSKSGTSASLAITGLQAEDEADYYCQSYDNSLSGSVVFGGGTKLTVL
360

Value lookup for Kd; key = ADI-21084 (antibody, V domains shown) VH: EVQLVESGAEVKKPGASVTVSCKASGYTFTSNTISWLRQAPGQGLEWLGWVSASNGNTKYAQKFQGRVTMTTDTSATTAYMEVRTLRHDDTAIYYCARDILDMGGFHFDNWGQGTLVTVSS VL: SYVLTQPPSVSVAPGQTARITCGGNNIGNKHVHWYKQKPGQAPVLVVYDDSDRPSGIPERFSGSNSGNTATLTVSRVEAGDEADFYCQVWDNTNDHPVFGGGTKVTVL
109

Value lookup for Kd; key = ADI-21085 (antibody, V domains shown, also called Ab 330) VH: EVQLVETGGGLVKPGGSLRLSCEASGFNFRSYSMNWVRQAPGKGLEWVSSISASSSYINYADSVKGRFTISRDNSKNSLYLQMNSLRAEDTGVYYCARVLVHYYYGMDVWGQGTTVTVSS VL: QSVLTQPPSVSAAPGQRVTISCTGTSSNIGAGYDVHWYQQLPGRAPKLLILGNNNRPSGVPDRFSGSKSGTSASLAITGLQAEDEADYYCQTYDKTLMEIFGGGTKLTVL
307

Value lookup for Kd; key = ADI-21069 (antibody, V domains shown) VH: EVQLVESGAEVRKPGASVKVSCKASGYTFSSNAISWVRQAPGQGLEWMGYISVFNGNTKYAQNLQGRVTMTTDTATSTVYMELRSLRYDDTAIYYCARESLGMGGFYFDHWGQGTLVTVSS VL: SYELTQPPSVSVAPGQTARITCGANNIGSDSVHWYQQKPGQAPVLVVFDDRDRPSGIPERFSGSNSGNTATLTISRVEAGDEADYYCQVWMTSDRSVFGGGTKLTVL
123
